These data points were gathered from ChEMBL document CHEMBL1130643.

target-or-test-system: Steroid 5-alpha-reductase (Rattus norvegicus, UniProt P24008+P31214)
protocol: Inhibitory activity against prostatic 5-alpha reductase in Sprague-Dawley rat
Assay type: protein assay
measurement-type: IC50 (nM)

Solved entries (count: 5):
>>> print(df.to_string())
                                   compound  measurement_type  units_symbol  readout_number
0  COc1ccccc1N1CCN(CCC(Oc2ccc(C(=O)Nc3ccccc3OCCCC(=O)O)cc2)c2ccc(CC(C)C)cc2)CC1 (stereo not drawn)              IC50            nM              39
1  CCc1ccc(C(CCN2CCN(c3ccccc3OC)CC2)Oc2ccc(C(=O)Nc3ccccc3OCCCC(=O)O)cc2)cc1 (stereo not drawn)              IC50            nM              70
2  COc1ccccc1N1CCN(CCCC(Oc2ccc(C(=O)Nc3ccccc3OCCCC(=O)O)cc2)c2ccccc2)CC1 (stereo not drawn)              IC50            nM             750
3  COc1ccccc1N1CCN(CCC(Oc2ccc(C(=O)Nc3ccccc3OCCCC(=O)O)cc2)c2ccccc2)CC1 (stereo not drawn)              IC50            nM            1000
4  COc1ccccc1N1CCN(CCCOc2ccc(C(=O)Nc3ccccc3OCCCC(=O)O)cc2)CC1              IC50            nM           41000

1 = COc1ccccc1N1CCN(CCC(Oc2ccc(NC(=O)c3ccccc3OCCCC(=O)O)cc2)c2ccccc2)CC1 (stereo not drawn)
2 = COc1ccccc1N1CCN(CCOc2ccc(C(=O)Nc3ccccc3OCCCC(=O)O)cc2)CC1
3 = COc1ccccc1N1CCN(CCC(Oc2ccc(C(=O)Nc3ccccc3OCCCC(=O)O)cc2)c2cccc(C)c2)CC1 (stereo not drawn)
Prompt: Kindly order the items shown according to IC50, from the highest value down. Put the labels in the order asked and list them.
Completion: 2, 1, 3
(2: 29000 nM, 1: 730 nM, 3: 360 nM)

---

target-or-test-system: Adrenergic receptor alpha-1 (Oryctolagus cuniculus)
protocol: Inhibition of phenylephrine-induced contractions in white rabbit prostate.
measurement-type: pA2

In [3]: df
Out[3]:
                                   compound                     target_or_test_system  readout_number
0  COc1ccccc1N1CCN(CCC(Oc2ccc(NC(=O)c3ccccc3OCCCC(=O)O)cc2)c2ccccc2)CC1 (configuration not stated)  Adrenergic receptor alpha-1 (Oryctolagus cuniculus)             7.1
1  COc1ccccc1N1CCN(CCC(Oc2ccc(C(=O)Nc3ccccc3OCCCC(=O)O)cc2)c2cccc(C)c2)CC1 (configuration not stated)  Adrenergic receptor alpha-1 (Oryctolagus cuniculus)             6.6
2  COc1ccccc1N1CCN(CCOc2ccc(C(=O)Nc3ccccc3OCCCC(=O)O)cc2)CC1  Adrenergic receptor alpha-1 (Oryctolagus cuniculus)             6.6
3  COc1ccccc1NC(=O)c1ccc(OCCCN2CCN(c3ccccc3OC)CC2)cc1  Adrenergic receptor alpha-1 (Oryctolagus cuniculus)             7.1
4  COc1ccccc1N1CCN(CCC(Oc2ccc(C(=O)Nc3ccccc3OCCCC(=O)O)cc2)c2ccccc2)CC1 (configuration not stated)  Adrenergic receptor alpha-1 (Oryctolagus cuniculus)             7.6
5  COc1ccccc1N1CCN(CCCCCCOc2ccc(C(=O)Nc3ccccc3OCCCC(=O)O)cc2)CC1  Adrenergic receptor alpha-1 (Oryctolagus cuniculus)               7
6  COc1ccccc1N1CCN(CCCC(Oc2ccc(C(=O)Nc3ccccc3OCCCC(=O)O)cc2)c2ccccc2)CC1 (configuration not stated)  Adrenergic receptor alpha-1 (Oryctolagus cuniculus)             6.5
